subjectOfTest: LXRβ ligand-binding domain (LBD) (Homo sapiens, UniProt P55055, INS174Q)
Construct: or LXR (amino acids 156-461)
Sequence (P55055 with tags, fused parts or gaps INS174Q limits assumed): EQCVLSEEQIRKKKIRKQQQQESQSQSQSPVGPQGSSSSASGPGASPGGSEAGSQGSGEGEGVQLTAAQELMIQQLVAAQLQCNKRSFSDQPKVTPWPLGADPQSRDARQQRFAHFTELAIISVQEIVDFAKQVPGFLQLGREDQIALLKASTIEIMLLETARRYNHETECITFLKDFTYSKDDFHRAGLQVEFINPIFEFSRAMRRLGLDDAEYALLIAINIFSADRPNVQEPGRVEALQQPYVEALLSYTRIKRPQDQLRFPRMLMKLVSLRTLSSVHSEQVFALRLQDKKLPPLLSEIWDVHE
experimentalDetails: LXR Gal4 reporter transient transfection assay, mammalian two-hybrid, LBD-M2H Gal4β
details: HEK293 cells; inverse agonist unless *
pEC50: −log10 of the molar value.
Kindly state pEC50 for each of the entries shown.

// query Reported pEC50, compound `CC(C)(C(=O)O)c1cccc(-c2ccc(CN(Cc3ccc(C(F)(F)F)o3)C(=O)c3cccn4nccc34)cc2)c1` : ____
// result > 7.00

// query Request the reported pEC50 associated with `Cc1ccc2ccccc2c1C(=O)N(Cc1ccc(-c2cccc(S(=O)(=O)CC(=O)O)c2)cc1)Cc1ccc(C(F)(F)F)o1`
// result 6.00 to 7.00

// query For the compound `Cc1ccc2ccccc2c1CN(Cc1ccc(C(F)(F)F)o1)Cc1cnc(-c2cccc(C(C)(C)C(=O)O)c2)s1` , what pEC50 is on record?
// result 6.00 to 7.00

// query Look up pEC50 for this compound: `CC(C)(C(=O)O)c1cccc(-c2ccc(CN(Cc3ccc(C(F)(F)F)o3)Cc3c(C#N)ccc4ccccc34)cc2)c1`
// result > 7.00

// query What does the record list as pEC50 for `COc1cc(-c2ccc3c(c2)C(C)(C)C(=O)OC3)ccc1CN(Cc1ccc(C(F)(F)F)o1)Cc1c(C)ccc2ccccc12` ?
// result > 7.00

// query Please give the measured pEC50 for this compound: `Cc1ccc2cccnc2c1CN(Cc1ccc(-c2cccc(C(C)(C)C(=O)O)c2)cc1)Cc1ccc(C(F)(F)F)o1`
// result > 7.00

// query Which pEC50 is listed for `COc1cc(-c2ccc(CO)c(C(C)(C)C(=O)[O-])c2)ccc1CN(Cc1ccc(C(F)(F)F)o1)Cc1c(C)ccc2ccccc12.[Na+]` ?
// result > 7.00

// query If you can, please state the reported pEC50 value of `Cc1ccc2ccccc2c1CN(Cc1ccc(-c2cncc(C(C)(C)C(=O)O)c2)cc1)Cc1ccc(C(F)(F)F)o1` .
// result > 7.00

// query Form field: reported pEC50 of `Cc1ccc2ccccc2c1CN(Cc1ccc(-c2nc(C(C)(C)C(=O)O)cs2)cc1)Cc1ccc(C(F)(F)F)o1`
// result > 7.00

// query Data request, read-out pEC50, for `Cc1cc(C)c(C(=O)N(Cc2ccc(-c3cccc(OCC(=O)O)c3)cc2)Cc2ccc(C(F)(F)F)o2)c(C)c1`
// result 6.00 to 7.00

// query Which pEC50 is reported for this compound? `Cc1ccc2ccccc2c1C(=O)N(Cc1ccc(-c2cc(F)c(CO)c(S(=O)(=O)CC(=O)O)c2)cc1)Cc1ccc(C(F)(F)F)o1`
// result > 7.00

// query Please report the recorded pEC50 for `COc1cc(-c2cccc(C(C)(C)C(=O)O)c2)ccc1CN(Cc1ccc(C(F)(F)F)o1)Cc1c(C)ccc2ccccc12` .
// result > 7.00

// query Could you share which pEC50 value was measured for `Cc1cc(C)c(C(=O)N(Cc2ccc(-c3cccc(C(C)(C)C(=O)O)c3)cc2)Cc2ccc(C(F)(F)F)o2)c(C)c1` ?
// result > 7.00

// query Which pEC50 reading was recorded for the compound `Cc1cc(C)c2ccccc2c1CN(Cc1ccc(-c2cccc(C(C)(C)C(=O)O)c2)cc1)Cc1ccc(C(F)(F)F)o1` ?
// result > 7.00
